From: the supplement of paper PMC9694430

This section presents molecules with their documented thermal shift delta Tm values.
# Test system: LOC_OS01G67340-cb003
# assay method text: thermal shift delta Tm vs DMSO control; higher = stronger stabilization (binding);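 also: purified Escherichia coli-expressed rice kinase domain construct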
# conditions: 12.5 µM; protein concentration 2 µM
readout type: thermal shift delta Tm (°C)

[[record]]
molecule = "C=CC(=O)N1CCC(Oc2cc3c(Nc4ccc(Cl)c(Cl)c4F)ncnc3cc2OC)CC1 [Poziotinib (HM781-36B)]"
readout_type = "thermal shift delta Tm"
recorded_value = 0.45

[[record]]
molecule = "CC(=O)O/N=C1/C(c2c(O)[nH]c3cc(Br)ccc23)=Nc2ccccc21 [BIO-acetoxime]"
readout_type = "thermal shift delta Tm"
recorded_value = -1.03

[[record]]
molecule = "Cc1c(NC(=O)c2ccc(C(C)(C)C)cc2)cccc1-c1cn(C)c(=O)c(Nc2ccc(C(=O)N3CCOCC3)cc2)n1"
readout_type = "thermal shift delta Tm"
recorded_value = -0.03

[[record]]
molecule = "CCCCCCCCCCCCCCCCCCOP(=O)([O-])OC1CC[N+](C)(C)CC1 [Perifosine (KRX-0401)]"
readout_type = "thermal shift delta Tm"
recorded_value = -1.14

[[record]]
molecule = "N#CC(=C(/N)Sc1ccccc1N)/C(C#N)=C(\\N)Sc1ccccc1N"
readout_type = "thermal shift delta Tm"
recorded_value = 0.77

[[record]]
molecule = "Cc1[nH]nc2ccc(-c3cncc(OC[C@@H](N)Cc4ccccc4)c3)cc12"
readout_type = "thermal shift delta Tm"
recorded_value = 1.12

[[record]]
molecule = "O=C1NCCc2[nH]c(-c3ccncc3)cc21"
readout_type = "thermal shift delta Tm"
recorded_value = 1.42

[[record]]
molecule = "CC(C)N(CCC(=O)c1ccc2ccccc2c1)Cc1ccccc1"
readout_type = "thermal shift delta Tm"
recorded_value = -0.6

[[record]]
molecule = "CC(C)(C)c1cc(NC(=O)Nc2ccc(Oc3ccnc4[nH]c(=O)cnc34)cc2F)n(-c2ccccc2)n1"
readout_type = "thermal shift delta Tm"
recorded_value = 0.45


* * *

# System: LOC_OS04G38480-cb003
# Sequence (as listed by the source): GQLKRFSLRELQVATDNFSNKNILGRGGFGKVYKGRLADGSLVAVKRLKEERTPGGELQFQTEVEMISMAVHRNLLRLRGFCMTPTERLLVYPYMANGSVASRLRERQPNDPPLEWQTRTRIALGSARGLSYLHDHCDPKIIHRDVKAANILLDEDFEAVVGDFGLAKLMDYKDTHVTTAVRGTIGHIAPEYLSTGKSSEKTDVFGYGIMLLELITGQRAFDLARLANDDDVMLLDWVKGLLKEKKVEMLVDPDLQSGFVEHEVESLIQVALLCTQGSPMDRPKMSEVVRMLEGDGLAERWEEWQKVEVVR
# assay method text: thermal shift delta Tm vs DMSO control; higher = stronger stabilization (binding)
# conditions: 12.5 µM; protein concentration 2 µM
Structures can show the parent of a compound that is named as a salt.
readout type: thermal shift delta Tm (°C)

[[record]]
molecule = "Cc1ccc(-n2nc(C(C)(C)C)cc2NC(=O)NCc2cc(F)ccc2Oc2ccc3c(cnn3CCO)c2)cc1"
readout_type = "thermal shift delta Tm"
units_text = "°C"
recorded_value = 1.51

[[record]]
molecule = "CNC(=O)c1cc(Oc2ccc(NC(=O)Nc3ccc(Cl)c(C(F)(F)F)c3)cc2)ccn1 [Sorafenib Tosylate]"
readout_type = "thermal shift delta Tm"
units_text = "°C"
recorded_value = 2.2

[[record]]
molecule = "CNC(=O)c1cc(Oc2ccc(NC(=O)Nc3ccc(Cl)c(C(F)(F)F)c3)c(F)c2)ccn1"
readout_type = "thermal shift delta Tm"
units_text = "°C"
recorded_value = 0.48

[[record]]
molecule = "Cc1nc(Nc2ncc(C(=O)Nc3c(C)cccc3Cl)s2)cc(N2CCN(CCO)CC2)n1"
readout_type = "thermal shift delta Tm"
units_text = "°C"
recorded_value = 1.57

[[record]]
molecule = "c1cn2cc(-c3ccc4cn[nH]c4c3)nc(Nc3ccc(N4CCOCC4)cc3)c2n1"
readout_type = "thermal shift delta Tm"
units_text = "°C"
recorded_value = 2.56

[[record]]
molecule = "Cc1ccc(Nc2cc(N[C@@H]3CCCC[C@@H]3N)nnc2C(N)=O)nc1C"
readout_type = "thermal shift delta Tm"
units_text = "°C"
recorded_value = 1.11

[[record]]
molecule = "CNc1nc(Nc2cn(C(C)(C)C#N)nc2C)ncc1C(F)(F)F"
readout_type = "thermal shift delta Tm"
units_text = "°C"
recorded_value = 1.34

[[record]]
molecule = "COc1ccc(CC(=O)Nc2nc3c(s2)CCc2ccccc2-3)cc1OC"
readout_type = "thermal shift delta Tm"
units_text = "°C"
recorded_value = 1.33

